Biological target: UniProt P51639
Test: Inhibition of HMG-coA reductase in CD rat liver microsomal-cytosol fraction assessed as inhibition of total lipid synthesis using [2-14C]acetate as substrate after 90 mins by scintillation counting analysis
Task for the reader: assign each of the following compounds its reported IC50.
State the answer as a number, implicitly in µM.

stdin: IC50 for CC(CCc1ccc2sc3ccccc3c2c1)CC(=O)O (centres undefined) ?
stdout: 190

stdin: Note, next up: CC(CCc1ccc(Sc2ccccc2)cc1)CC(=O)O (centres undefined)
stdout: 40

stdin: Note, next up: CC(CCc1ccc(-c2ccccc2)cc1)CC(=O)O (centres undefined)
stdout: 20

stdin: Note, next up: CC(CCc1ccc(Oc2ccccc2)cc1)CC(=O)O (centres undefined)
stdout: 30

stdin: Note, next up: CC(CCc1ccc2oc3ccccc3c2c1)CC(=O)O (centres undefined)
stdout: 810

stdin: Note, next up: CC(CC(=O)O)CC(=O)c1ccc(Sc2ccccc2)cc1 (centres undefined)
stdout: 570

stdin: Note, next up: CC(CC(=O)O)CC(=O)c1ccc2sc3ccccc3c2c1 (centres undefined)
stdout: 310

stdin: Note, next up: CC(C)(Oc1ccc(Cl)cc1)C(=O)O
stdout: 630

stdin: Note, next up: CC(CC(=O)O)CC(=O)c1ccc2oc3ccccc3c2c1 (centres undefined)
stdout: 260

stdin: Note, next up: CC(CCc1ccc(S(=O)(=O)c2ccccc2)cc1)CC(=O)O (centres undefined)
stdout: 70

stdin: Note, next up: CC(CC(=O)O)CC(=O)c1ccc(Oc2ccccc2)cc1 (centres undefined)
stdout: 850

stdin: Note, next up: CC(CC(=O)O)CC(=O)c1ccc(-c2ccccc2)cc1 (centres undefined)
stdout: 180

stdin: Note, next up: CC(CCc1ccc2c(c1)-c1ccccc1S2(=O)=O)CC(=O)O (centres undefined)
stdout: 50

stdin: Note, next up: CC(CC(=O)O)CC(=O)c1ccc2c(c1)CCc1ccccc1-2 (centres undefined)
stdout: 60

* * *

Task for the reader: assign each of the following compounds its reported pIC50.
Target: 3-hydroxy-3-methylglutaryl-coenzyme A reductase (Rattus norvegicus, UniProt P51639)
Sequence (P51639 whole entry): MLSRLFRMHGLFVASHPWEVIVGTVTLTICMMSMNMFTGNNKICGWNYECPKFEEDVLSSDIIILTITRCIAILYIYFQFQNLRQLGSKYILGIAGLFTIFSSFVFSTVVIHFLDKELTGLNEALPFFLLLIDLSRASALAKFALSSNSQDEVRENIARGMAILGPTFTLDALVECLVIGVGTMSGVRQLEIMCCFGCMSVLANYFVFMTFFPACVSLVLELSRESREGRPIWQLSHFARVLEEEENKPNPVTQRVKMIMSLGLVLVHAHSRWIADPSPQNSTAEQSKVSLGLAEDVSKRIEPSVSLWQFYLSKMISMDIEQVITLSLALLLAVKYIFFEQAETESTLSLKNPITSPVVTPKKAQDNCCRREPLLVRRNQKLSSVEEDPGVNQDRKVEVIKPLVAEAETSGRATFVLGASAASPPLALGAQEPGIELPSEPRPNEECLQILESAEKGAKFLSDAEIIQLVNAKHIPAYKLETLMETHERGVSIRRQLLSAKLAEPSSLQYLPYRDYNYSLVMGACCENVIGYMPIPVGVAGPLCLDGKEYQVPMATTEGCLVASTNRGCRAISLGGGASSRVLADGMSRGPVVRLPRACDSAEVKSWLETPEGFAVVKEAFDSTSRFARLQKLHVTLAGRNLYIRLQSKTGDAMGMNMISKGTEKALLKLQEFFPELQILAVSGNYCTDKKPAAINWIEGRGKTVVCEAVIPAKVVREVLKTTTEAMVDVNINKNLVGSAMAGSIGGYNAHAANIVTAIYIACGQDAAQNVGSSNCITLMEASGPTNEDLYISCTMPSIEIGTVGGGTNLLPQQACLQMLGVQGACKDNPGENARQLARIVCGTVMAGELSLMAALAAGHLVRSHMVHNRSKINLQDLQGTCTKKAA
Assay: Inhibition of HMG-coA reductase in CD rat liver microsomal-cytosol fraction assessed as inhibition of nonsaponifiable lipid synthesis using [2-14C]acetate as substrate after 90 mins by scintillation counting analysis
Reminder that pIC50 means the negative base-10 logarithm of the concentration expressed in mol/L.

stdin: pIC50 for CC(CC(=O)O)CC(=O)c1ccc(Sc2ccccc2)cc1 (centres undefined) ?
stdout: 3.62

stdin: Note, next up: CC(CCc1ccc2sc3ccccc3c2c1)CC(=O)O (centres undefined)
stdout: 4.15

stdin: Note, next up: CC(CC(=O)O)CC(=O)c1ccc(-c2ccccc2)cc1 (centres undefined)
stdout: 4.15

stdin: Note, next up: CC(CC(=O)O)CC(=O)c1ccc(Oc2ccccc2)cc1 (centres undefined)
stdout: 3.54

stdin: Note, next up: CC(CCc1ccc(Sc2ccccc2)cc1)CC(=O)O (centres undefined)
stdout: 4.70

stdin: Note, next up: CC(CC(=O)O)CC(=O)c1ccc2sc3ccccc3c2c1 (centres undefined)
stdout: 3.80

stdin: Note, next up: CC(CC(=O)O)CC(=O)c1ccc2oc3ccccc3c2c1 (centres undefined)
stdout: 3.96

stdin: Note, next up: CC(CCc1ccc2oc3ccccc3c2c1)CC(=O)O (centres undefined)
stdout: 3.44

stdin: Note, next up: CC(CCc1ccc2c(c1)-c1ccccc1S2(=O)=O)CC(=O)O (centres undefined)
stdout: 4.10

stdin: Note, next up: CC(CCc1ccc(Oc2ccccc2)cc1)CC(=O)O (centres undefined)
stdout: 4.70

stdin: Note, next up: CC(C)(Oc1ccc(Cl)cc1)C(=O)O
stdout: 3.07

stdin: Note, next up: CC(CCc1ccc(-c2ccccc2)cc1)CC(=O)O (centres undefined)
stdout: 5.70

stdin: Note, next up: CC(CCc1ccc(S(=O)(=O)c2ccccc2)cc1)CC(=O)O (centres undefined)
stdout: 4.40

stdin: Note, next up: CC(CC(=O)O)CC(=O)c1ccc2c(c1)CCc1ccccc1-2 (centres undefined)
stdout: 4.52
